- System: G. duodenalis BRIS/91/HEPU/1279
- Experiment notes: Primary Giardia screen at 10 µM (live-cell imaging, automated counting)
- Format: cell-based, Giardia duodenalis
- Condition summary: 48 h, first singlicate assay
# cutoff 10% applies to % Inhibition n=1 48h; >= gives t, < gives f

Answer whether % Inhibition n=1 48h of `CCc1nnc(NC(=O)c2ccsc2-n2c(C)ccc2C)s1` is greater than or equal to 10%.
t

Answer whether % Inhibition n=1 48h of CC(=O)NCc1ccc(C(=O)N2CCCCC(N3CCCC3)C2)cc1 (stereo not shown) is greater than or equal to 10%.
f

Answer whether % Inhibition n=1 48h of `c1ccc(-n2nnnc2Oc2ccc(-c3nc4ccccc4s3)cc2)cc1` is greater than or equal to 10%.
t

Answer whether % Inhibition n=1 48h of `O=C(Cn1c(-c2ccccn2)noc1=O)C12CC3CC(CC(C3)C1)C2` is greater than or equal to 10%.
t

Answer whether % Inhibition n=1 48h of Cc1cc(N2C(=O)C(O)=C(C(=O)c3ccc(Cl)cc3)C2c2ccc([N+](=O)[O-])cc2)no1 (stereo not shown) is greater than or equal to 10%.
t

Answer whether % Inhibition n=1 48h of `Cc1nc(-c2cc(S(=O)(=O)N3CCCCCC3)c(C)s2)sc1C` is greater than or equal to 10%.
t

Answer whether % Inhibition n=1 48h of `COc1ccc(OC)c(CNC(=O)c2ccc3[nH]c4c(c3c2)CN(C(C)=O)CC4)c1` is greater than or equal to 10%.
f

Answer whether % Inhibition n=1 48h of `O=c1c2ccsc2ncn1Cc1noc(-c2ccsc2)n1` is greater than or equal to 10%.
f

Answer whether % Inhibition n=1 48h of CC1(C(=O)NCc2cccc(F)c2)CCCN(C(=O)Cc2cccs2)C1 (stereo not shown) is greater than or equal to 10%.
t

Answer whether % Inhibition n=1 48h of Cc1nnc(C2Cc3ccccc3CN2CCOc2ccc(F)cc2)o1 (stereo not shown) is greater than or equal to 10%.
f

Answer whether % Inhibition n=1 48h of `CCOC(=O)N1CCN(c2cc(-c3nc(-c4cccc(OC)c4OC)no3)c3ccccc3n2)CC1` is greater than or equal to 10%.
t

Answer whether % Inhibition n=1 48h of `C=CCNC(=O)CCN1CCN(Cc2ccccc2)C1=O` is greater than or equal to 10%.
f

Answer whether % Inhibition n=1 48h of `CN(CCCN)C(=O)c1ccc2c(=O)n3c(nc2c1)CCCCC3` is greater than or equal to 10%.
t

Answer whether % Inhibition n=1 48h of `Cc1nsc(N2CCCN(C(=O)NCc3ccccc3C)CC2)n1` is greater than or equal to 10%.
f

Answer whether % Inhibition n=1 48h of CCCC(=O)Nc1ccc2c(c1)CN(C(=O)Cc1ccccc1C)C(C(=O)N(C)C)C2 (stereo not shown) is greater than or equal to 10%.
t

Answer whether % Inhibition n=1 48h of CC(=O)N1N=C2C3CCN(CC3)[C@@H]2[C@@H]1c1cccc2ccccc12 (relative stereo) is greater than or equal to 10%.
f

Answer whether % Inhibition n=1 48h of `CCCNC(=O)c1sc(-n2nc(C)c(Cl)c2C)nc1C` is greater than or equal to 10%.
t

Answer whether % Inhibition n=1 48h of `Cc1ccc(CNC(=O)Cn2c(C)cc(C)c(-c3nc(-c4ccccc4)no3)c2=O)cc1` is greater than or equal to 10%.
f

Answer whether % Inhibition n=1 48h of `CCn1ccnc1CN1CCCN(C(=O)c2cnc(C)cn2)CC1` is greater than or equal to 10%.
t

Answer whether % Inhibition n=1 48h of `CCCNC1=C(C(=O)Nc2ccc(F)cc2)S(=O)(=O)c2ccccc21` is greater than or equal to 10%.
t

Answer whether % Inhibition n=1 48h of `Cc1cc(C(=O)N2CCCN(c3cccnn3)CC2)c(C)n1C(C)C` is greater than or equal to 10%.
f

Answer whether % Inhibition n=1 48h of `Cc1ccccc1S(=O)(=O)N1CCC2(CC1)Nc1ccc(Cl)cc1-n1cccc12` is greater than or equal to 10%.
t

====

- Tested on: G. duodenalis BRIS/91/HEPU/1279
- Experiment notes: Primary Giardia screen at 10 µM (live-cell imaging, automated counting)
- Format: cell-based, Giardia duodenalis
- Condition summary: 48 h, first singlicate assay
Measure name: % Inhibition n=1 48h (%)
# value in %; strip the unit string

Per the record, CCC(C)NC(=O)c1cc2c(=O)n(Cc3ccccc3)ccc2s1 (centres unmarked) has % Inhibition n=1 48h of 11.3

Per the record, `CNc1nc(C(N)=O)c(NC(=O)c2ccc(OC)cc2)s1` has % Inhibition n=1 48h of 25.8

Per the record, `O=C(Nc1cnc(-c2ccccc2)nc1)c1ccccc1C(F)(F)F` has % Inhibition n=1 48h of 0.0

Per the record, `CS(=O)(=O)N1CCCc2cc(-c3csc(N)n3)ccc21` has % Inhibition n=1 48h of 7.2

Per the record, CC1CCc2nn(CC(=O)NC(C)c3ccccc3)cc2C1 (centres unmarked) has % Inhibition n=1 48h of 0.0

Per the record, `Cc1csc(-n2nc(C)c(CC(=O)N3CCN(c4ccccc4)CC3)c2O)n1` has % Inhibition n=1 48h of 34.3

Per the record, `CCCNC(=O)c1cncc(-c2cccc(NC(=O)CC)c2)c1` has % Inhibition n=1 48h of 0.0

Per the record, CCC1c2cccn2-c2ccccc2CN1C(=O)NCCc1ccccc1 (centres unmarked) has % Inhibition n=1 48h of 18.8

Per the record, `CCCCS(=O)(=O)N1CCC(c2nnnn2-c2ccc(C)cc2)CC1` has % Inhibition n=1 48h of 0.0

Per the record, Cc1cc2n(CC(O)COc3ccccc3F)c(=O)c3ccccc3n2n1 (centres unmarked) has % Inhibition n=1 48h of 17.7

Per the record, `COc1ccc(C)cc1NC(=O)Nc1c(-c2ccncc2)[nH]c2c(Cl)cccc12` has % Inhibition n=1 48h of 0.0

Per the record, `O=C1O[C@@H]2C[C@H]3C[C@@H]2[C@@H]1[C@H]3C(=O)Nc1ccc(C(=O)N2CC=C(c3ccccc3)CC2)cc1` has % Inhibition n=1 48h of 11.8

Per the record, `Cc1cccc2c1NC1(CCN(S(=O)(=O)c3ccc(C(C)(C)C)cc3)CC1)NC2=O` has % Inhibition n=1 48h of 13.3

Per the record, `CCn1c(=O)c(=O)n(CC(=O)NCc2ccc(SC)cc2)c2ccccc21` has % Inhibition n=1 48h of 16.0

Per the record, Cc1csc(C2CCCCN2)n1 (centres unmarked) has % Inhibition n=1 48h of 6.1

Per the record, `CCCCN1CCN(C(=O)c2cc3c(=O)n(CC(C)C)c4ccccc4n3n2)CC1` has % Inhibition n=1 48h of 12.0

Per the record, `CCOC(=O)c1ccc(NC(=O)Cn2c(=O)cc(-c3nc(C)no3)c3ccccc32)cc1` has % Inhibition n=1 48h of 2.1

Per the record, Cc1ccccc1C(=O)N[C@@H]1CCCC[C@H]1NC(=O)C1CCCN(C(=O)c2ccc(Cl)cc2)C1 (some centres unmarked) has % Inhibition n=1 48h of 3.9

Per the record, `Cc1ccc([N+](=O)[O-])cc1N1CC(=O)C(c2nc3ccccc3[nH]2)=C1N` has % Inhibition n=1 48h of 21.1

Per the record, CN1c2ccccc2OCC1CC(=O)Nc1ccc(F)cc1 (centres unmarked) has % Inhibition n=1 48h of 7.6

Per the record, `O=C(C1CCC1)N1CCCc2cc(S(=O)(=O)Nc3ccccc3)ccc21` has % Inhibition n=1 48h of 0.0

Per the record, `O=C(N1CCN(c2cccc(Cl)c2)CC1)C1(S(=O)(=O)c2ccc(Cl)cc2)CC1` has % Inhibition n=1 48h of 0.0

Per the record, `Cc1ccc(S(=O)(=O)N2CCC[C@H]2C(=O)N2CCN(CC(=O)Nc3cccc(C)c3C)CC2)cc1` has % Inhibition n=1 48h of 7.6

Per the record, `O=C(Cn1cnc2c(nnn2Cc2ccc(Cl)cc2)c1=O)NC1CCCC1` has % Inhibition n=1 48h of 16.4

Per the record, `Cc1nccc2[nH]c(=O)c(C(=O)NCCCN(C)C3CCCCC3)cc12` has % Inhibition n=1 48h of 0.0

Per the record, O=C(Nc1cccc(C(=O)N2CCC(N3CCCC3)C2)c1)c1ccco1 (centres unmarked) has % Inhibition n=1 48h of 0.0

Per the record, COc1ccc(C2NC(=O)NC(C)=C2C(=O)c2ccccc2)cc1 (centres unmarked) has % Inhibition n=1 48h of 12.9

Per the record, COc1ccc(CNC(=O)N2CCN(C)CC2c2ccccc2)cn1 (centres unmarked) has % Inhibition n=1 48h of 0.0

Per the record, `CCOC(=O)c1sc2ncnc(Nc3cn[nH]c3)c2c1C` has % Inhibition n=1 48h of 42.7

Per the record, Cn1c(C(=O)N2CCCC(C(=O)NCCc3ccccc3)C2)cc2sccc21 (centres unmarked) has % Inhibition n=1 48h of 4.8

Per the record, `COc1ccc(OC)c(CNC(=O)c2ccc(N3CCOc4ccccc43)s2)c1` has % Inhibition n=1 48h of 9.9

Per the record, `CCOc1ccc(NS(=O)(=O)c2cc(C(=O)Nc3cc(C)ccc3C)[nH]n2)cc1` has % Inhibition n=1 48h of 15.3

Per the record, `O=C(Cc1csc2nc(-c3ccccc3)cn12)NCCc1cccs1` has % Inhibition n=1 48h of 0.0

Per the record, `CC(C)(C)NC(=O)c1cc(-c2cccnc2)[nH]n1` has % Inhibition n=1 48h of 15.5

Per the record, `CCC(=O)N1CCCc2ccc(NS(=O)(=O)c3ccc(F)c(C)c3)cc21` has % Inhibition n=1 48h of 17.5
